Ref: ChEMBL document CHEMBL5230084

- Tested on: Staphylococcus aureus
- test-description: Antibacterial activity against methicillin-resistant Staphylococcus aureus
- Format: functional
Measured MIC accompanies every entry in the list below.

{"columns": ["compound", "censoring-qualifier", "MIC (µg/mL)"],
 "data": [
  ["CC(=O)/C(=C\\c1cn(CC(=O)N2CCCCC2)c2ccccc12)n1c([N+](=O)[O-])cnc1C", "=", 1],
  ["N=C(N)N/N=C/c1cn(S(=O)(=O)c2ccccc2)c2ccc(-c3cccc(OC(F)(F)F)c3)cc12", "=", 3.13],
  ["COC(=O)c1ccc(-c2ccc3c(c2)c(/C=N/NC(=N)N)cn3S(=O)(=O)c2ccccc2)cc1", "=", 3.13],
  ["CCCNc1nnc(Cc2c[nH]c3ccccc23)s1", "=", 6.25],
  ["CC[C@H]1OC(=O)[C@H](C)[C@@H](O[C@H]2C[C@@](C)(OC)[C@@H](O)[C@H](C)O2)[C@H](C)[C@@H](O[C@@H]2O[C@H](C)C[C@H](N(C)C)[C@H]2O)[C@](C)(O)C[C@@H](C)C(=O)[C@H](C)[C@@H](O)[C@]1(C)O", "=", 32],
  ["Clc1ccc(-n2nc(C3CCNCC3)cc2/C=C/c2c[nH]c3ccc(Cl)cc23)cc1", "=", 1],
  ["Clc1ccc2nc(-c3c[nH]c4ccc(Br)cc34)ccc2c1", "=", 0.62],
  ["c1ccc(Nc2nnc(Cc3c[nH]c4ccccc34)s2)cc1", "=", 25],
  ["CC1=C(C(=O)O)N2C(=O)[C@@H](NC(=O)[C@H](N)c3ccccc3)[C@H]2SC1 [CEPHALEXIN ANHYDROUS]", "=", 72],
  ["CC1(C)S[C@@H]2[C@H](NC(=O)[C@H](N)c3ccccc3)C(=O)N2[C@H]1C(=O)OCOC(=O)[C@@H]1N2C(=O)C[C@H]2S(=O)(=O)C1(C)C", "=", 25],
  ["Brc1ccc2[nH]cc(C3Nc4ccc(I)cc4[C@H]4OCO[C@@H]34)c2c1 (stereo partly specified)", "=", 0.31],
  ["OCc1cc(-c2c[nH]c3ccc(Br)cc23)nc2cc(Cl)ccc12", "<", 1],
  ["N=C(N)N/N=C/c1cn(S(=O)(=O)c2ccccc2)c2ccc(-c3ccc(C(F)(F)F)cc3)cc12", "=", 3.13],
  ["Cc1ccc(-c2onc3ccc4c(c(Br)cn4C(C)(C)C)c23)cc1", "=", 4.3],
  ["CCCCn1cc(Br)c2c3c(-c4ccc(OC)cc4)occ3ccc21", "=", 1.4],
  ["Fc1ccc2[nH]cc(-c3ccc4cc(Cl)ccc4n3)c2c1", "=", 0.62],
  ["N=C(N)N/N=C/c1cn(S(=O)(=O)c2ccccc2)c2ccc(-c3ccc(OC(F)(F)F)cc3)cc12", "=", 3.13],
  ["N=C(N)N/N=C/c1cn(S(=O)(=O)c2ccccc2)c2ccc(-c3ccc(F)c(Cl)c3)cc12", "=", 3.13],
  ["Oc1ccc(C(c2c[nH]c3ccc(Br)cc23)c2c[nH]c3ccc(Br)cc23)cc1", "=", 1],
  ["Fc1ccc(C(c2c[nH]c3ccc(Br)cc23)c2c[nH]c3ccc(Br)cc23)cc1", "=", 1],
  ["Fc1ccc2c(-c3ccc4cc(Cl)ccc4n3)c[nH]c2c1", "=", 0.62],
  ["Fc1cccc(Nc2nnc(Cc3c[nH]c4ccccc34)s2)c1", "=", 25],
  ["COc1ccc(-c2occ3ccc4c(c(Br)cn4C(C)(C)C)c23)cc1", "=", 1.4],
  ["Clc1ccc2c(c1)[C@H]1OCO[C@H]1C(c1c[nH]c3ccc(Br)cc13)N2 (stereo partly specified)", "=", 0.31],
  ["CCCCn1cc(Br)c2c3c(-c4ccc(C)cc4)onc3ccc21", "=", 4.3],
  ["O=[N+]([O-])c1ccc(C(c2c[nH]c3ccc(Br)cc23)c2c[nH]c3ccc(Br)cc23)cc1", "=", 1],
  ["Oc1cccc(C(c2c[nH]c3ccc(Br)cc23)c2c[nH]c3ccc(Br)cc23)c1", "=", 1],
  ["Clc1ccc2nc(-c3c[nH]c4ccc(Cl)cc34)ccc2c1", "=", 0.62],
  ["COc1ccc2nc3[nH]c4ccccc4c3c(-c3c[nH]c4ccccc34)c2c1", "=", 4],
  ["c1ccc2c(-c3c[nH]c4ccccc34)c3c(nc2c1)[nH]c1ccccc13", "=", 1],
  ["Clc1ccc2c(Cl)cc(-c3c[nH]c4ccc(Br)cc34)nc2c1", "<", 1],
  ["CC(C)(C)n1cc(Br)c2c3c(-c4ccc(Cl)cc4)onc3ccc21", "=", 4.3],
  ["Fc1ccc(Nc2nnc(Cc3c[nH]c4ccccc34)s2)c(F)c1", "=", 50],
  ["CCn1cc(Br)c2c3c(-c4ccc(Cl)cc4)onc3ccc21", "=", 4.3],
  ["Nc1nnc(Cc2c[nH]c3ccccc23)s1", "=", 3.12],
  ["CCCn1cc(Br)c2c3c(-c4ccc(OC)cc4)occ3ccc21", "=", 1.4],
  ["CCn1cc(Br)c2c3c(-c4ccc(OC)cc4)occ3ccc21", "=", 1.4],
  ["S=C=NCCn1ccc2ccccc21", "=", 8],
  ["Clc1ccc(Nc2nnc(Cc3c[nH]c4ccccc34)s2)c(Cl)c1", "=", 25],
  ["Clc1ccc(C(c2c[nH]c3ccc(Br)cc23)c2c[nH]c3ccc(Br)cc23)cc1", "=", 1],
  ["CCCCn1cc(Br)c2c3c(-c4ccc(Cl)cc4)onc3ccc21", "=", 5]
]}
